assay system: T1, EsCas13d, nuclease-dead (Eubacterium siraeum, UniProt B0MS50, R295A;H300A;R849A;H854A)
T1 sequence: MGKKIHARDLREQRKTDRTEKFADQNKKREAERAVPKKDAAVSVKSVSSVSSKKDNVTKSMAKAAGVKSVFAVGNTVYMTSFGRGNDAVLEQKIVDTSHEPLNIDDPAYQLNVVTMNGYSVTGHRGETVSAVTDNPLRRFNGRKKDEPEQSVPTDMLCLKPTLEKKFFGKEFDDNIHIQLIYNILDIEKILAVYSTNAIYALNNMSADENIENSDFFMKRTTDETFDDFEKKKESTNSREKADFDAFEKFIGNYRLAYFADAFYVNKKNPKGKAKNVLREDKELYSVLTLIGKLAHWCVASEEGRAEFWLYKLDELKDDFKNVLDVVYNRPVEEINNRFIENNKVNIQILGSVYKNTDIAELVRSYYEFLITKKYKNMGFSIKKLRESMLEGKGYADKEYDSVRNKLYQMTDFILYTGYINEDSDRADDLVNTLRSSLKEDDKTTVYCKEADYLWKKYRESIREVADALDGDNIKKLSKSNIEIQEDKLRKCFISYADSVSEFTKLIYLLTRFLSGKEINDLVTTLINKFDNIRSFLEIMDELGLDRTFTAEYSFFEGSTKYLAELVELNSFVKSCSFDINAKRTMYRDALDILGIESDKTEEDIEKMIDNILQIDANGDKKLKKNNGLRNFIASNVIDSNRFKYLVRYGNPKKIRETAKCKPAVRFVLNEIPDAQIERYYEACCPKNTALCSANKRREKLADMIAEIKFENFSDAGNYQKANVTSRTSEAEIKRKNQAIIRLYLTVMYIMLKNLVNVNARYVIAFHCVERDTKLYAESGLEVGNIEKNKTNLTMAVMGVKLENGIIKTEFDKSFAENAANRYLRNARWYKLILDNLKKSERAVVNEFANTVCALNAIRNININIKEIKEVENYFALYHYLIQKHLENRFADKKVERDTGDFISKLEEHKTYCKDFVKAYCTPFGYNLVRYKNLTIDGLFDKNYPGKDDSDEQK
test method notes: crRNA (strand 1, pre-loaded); Mg2+; 40 mM Tris-HCl pH 7.5, 150 mM NaCl, 6 mM MgCl2, 1 mM DTT, 0.1% Tween-20, 0.2 mg/ml BSA; 25 C; 10 min per concentration, then washed
reported conditions: tags: His6-TwinStrep-SUMO cleaved; N-terminal SNAP kept (SNAP-Surface 488); label: 3' end held by stalled T7 RNA polymerase
pKd: −log10 of the molar value.
measured parameter: pKd

* target 1 U3G,A9G (mixed) RNA 1: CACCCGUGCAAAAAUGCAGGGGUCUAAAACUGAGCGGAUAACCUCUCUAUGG RNA 2: GGGAAUGGAUCCACAUCUACGAAUUCGUACCAUAGAGAGGUUGUCCGCGCACCGAGAUCGGAAGAGCACACGU | 8.08
* target 1 G17C (mixed) RNA 1: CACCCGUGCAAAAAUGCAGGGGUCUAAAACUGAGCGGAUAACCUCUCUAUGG RNA 2: GGGAAUGGAUCCACAUCUACGAAUUCGUACCAUACAGAGGUUAUCCGCUCACCGAGAUCGGAAGAGCACACGU | 7.40
* target 1 MT 5'PFS GUG 3'PFS CGU (mixed) RNA 1: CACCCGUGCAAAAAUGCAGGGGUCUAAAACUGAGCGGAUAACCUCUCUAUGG RNA 2: GGGAAUGGAUCCACAUCUACGAAUUCGUGCCAUAGAGAGGUUAUCCGCUCACGUAGAUCGGAAGAGCACACGU | 8.17
* target 1 insA 3' of 21,insA 3' of 4 (mixed) RNA 1: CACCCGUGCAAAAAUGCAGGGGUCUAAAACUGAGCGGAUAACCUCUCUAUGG RNA 2: GGGAAUGGAUCCACAUCUACGAAUUCGUACCAAUAGAGAGGUUAUCCGCAUCACCGAGAUCGGAAGAGCACACGU | 7.99
* target 3 del14,del17 (mixed) RNA 1: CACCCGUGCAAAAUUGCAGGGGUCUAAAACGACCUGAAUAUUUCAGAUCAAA RNA 2: GGGAAUGGAUCCACAUCUACGAAUUCGUUUUUGACUAAAUAUUCAGGUCUGCAGAUCGGAAGAGCACACGU | 7.39
* target 1 C6A,U19C (mixed) RNA 1: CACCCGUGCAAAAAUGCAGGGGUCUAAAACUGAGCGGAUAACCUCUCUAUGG RNA 2: GGGAAUGGAUCCACAUCUACGAAUUCGUACCACAGAGAGGUUAUCAGCUCACCGAGAUCGGAAGAGCACACGU | 7.67
* target 1 MT 5'PFS GGC 3'PFS ACU (mixed) RNA 1: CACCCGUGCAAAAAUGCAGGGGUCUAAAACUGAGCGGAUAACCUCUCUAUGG RNA 2: GGGAAUGGAUCCACAUCUACGAAUUCGGCCCAUAGAGAGGUUAUCCGCUCAACUAGAUCGGAAGAGCACACGU | 7.84
* target 1 insU 3' of 22,insA 3' of 3 (mixed) RNA 1: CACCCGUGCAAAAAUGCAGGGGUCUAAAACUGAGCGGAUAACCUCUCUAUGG RNA 2: GGGAAUGGAUCCACAUCUACGAAUUCGUACUCAUAGAGAGGUUAUCCGCUACACCGAGAUCGGAAGAGCACACGU | 7.50
